Value source: patent US8916555B2

# study-system: kinase domain protein of RC kinase (Homo sapiens, UniProt Q56UN5)
# Sequence (Q56UN5 1061-1324 limits assumed): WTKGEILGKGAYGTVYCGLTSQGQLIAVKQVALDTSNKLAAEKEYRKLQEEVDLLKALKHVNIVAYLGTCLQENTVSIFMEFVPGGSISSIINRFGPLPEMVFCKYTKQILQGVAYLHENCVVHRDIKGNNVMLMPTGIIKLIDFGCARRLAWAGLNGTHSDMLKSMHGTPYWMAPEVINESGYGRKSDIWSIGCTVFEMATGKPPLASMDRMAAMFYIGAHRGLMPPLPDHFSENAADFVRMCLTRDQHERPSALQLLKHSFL
# protocol: Enzymatic assay for kinase inhibitory activity (Crebtide substrate, LANCE readout), kinase domain protein
# Assay type: biochemical
# condition-details: test compound 1 μM, ATP 1 μM, Crebtide 50 nM
inhibition at 1 µM overview

Below are worked cases with known answers.
| smiles-text | endpoint | reported-result |
| --- | --- | --- |
| CC(C)(C)c1ccc(Nc2n[nH]c(NCc3ccc(O)cc3)c2C(N)=O)cc1 | inhibition at 1 µM | ≥ 50% |
| NC(=O)c1c(Nc2ccc(-c3cc[nH]n3)cc2)n[nH]c1NCc1ccc(O)cc1 | inhibition at 1 µM | ≥ 50% |

Could you now look at the following molecule, please?
Please list inhibition at 1 µM recorded for the molecule NC(=O)c1c(Nc2cccnc2)n[nH]c1NCc1ccccc1 5 to 20%

----------
endpoint: melting point

Below are worked cases with known answers.
| smiles-text | melting point |
| --- | --- |
| CCc1cccc(Nc2n[nH]c(NCc3ccc(O)cc3)c2C(N)=O)c1 | 208 to 212 °C |
| COc1ccc(CNc2n[nH]c(NCc3ccc(O)cc3)c2C(N)=O)cn1 | 178 to 180 °C |
| NC(=O)c1c(Nc2ccc(N3CCOC(=O)C3)cc2)n[nH]c1NCc1ccc(O)cc1 | 194 to 197 °C |
| Cn1nc(CSc2ccccc2)c(CNc2[nH]nc(Nc3cccc(Cl)c3)c2C#N)c1Cl | 100 to 104 °C |

Could you now look at the following molecule, please?
Please list melting point recorded for the molecule CC(=O)c1ccc(Nc2n[nH]c(NCc3ccc(O)cc3)c2C(N)=O)cc1 167 to 172 °C

----------
melting point overview

| smiles-text | melting point |
| --- | --- |
| NC(=O)c1c(NCc2c(F)cccc2F)n[nH]c1NCc1ccc(O)cc1 | 189 to 191 °C |
| CS(=O)(=O)c1ccc(CNc2n[nH]c(NCc3ccc(O)cc3)c2C(N)=O)cc1 | 263 to 267 °C |
| CC1CCN(C2CCN(c3ccc(Nc4n[nH]c(NCc5ccc(O)cc5)c4C(N)=O)cc3)CC2)CC1 | 220 to 224 °C |
| COc1ccccc1C(=O)Nc1ccc(Nc2n[nH]c(NCc3ccc(O)cc3)c2C(N)=O)cc1 | 208 to 211 °C |
| COc1cc(CNc2[nH]nc(Nc3cccnc3)c2C(N)=O)ccc1F | 226 to 229 °C |

Please list melting point recorded for the compound NC(=O)c1c(Nc2cccc(Cl)c2)n[nH]c1NCc1cccs1 222 to 227 °C

Please list melting point recorded for the compound NC(=O)c1c(Nc2ccc(-c3ccccc3)cc2)n[nH]c1NCc1ccc(O)cc1 206 to 210 °C

Please list melting point recorded for the compound NC(=O)c1c(Nc2ccc(C(F)(F)F)nc2)n[nH]c1NCc1ccc(O)cc1 259 to 265 °C

Please list melting point recorded for the compound CC1CCN(C2CCN(c3ccc(Nc4n[nH]c(NCc5ccc(O)cc5)c4C(N)=O)cn3)CC2)CC1 203 to 206 °C

----------
# study-system: kinase domain protein of RC kinase (Homo sapiens, UniProt Q56UN5)
# Sequence (Q56UN5 1061-1324 limits assumed): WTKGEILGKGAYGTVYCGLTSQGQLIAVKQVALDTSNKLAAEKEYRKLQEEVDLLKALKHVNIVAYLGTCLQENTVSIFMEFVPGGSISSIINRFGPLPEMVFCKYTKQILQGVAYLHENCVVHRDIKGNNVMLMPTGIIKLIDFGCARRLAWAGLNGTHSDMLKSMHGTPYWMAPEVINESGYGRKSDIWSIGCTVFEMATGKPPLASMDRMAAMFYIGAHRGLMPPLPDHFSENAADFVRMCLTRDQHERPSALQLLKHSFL
# protocol: Enzymatic assay for kinase inhibitory activity (Crebtide substrate, LANCE readout), kinase domain protein
# Assay type: biochemical
# condition-details: test compound 1 μM, ATP 1 μM, Crebtide 50 nM
inhibition at 1 µM overview

Below are worked cases with known answers.
| compound | inhibition at 1 µM |
| --- | --- |
| NC(=O)c1c(Nc2cccc(Cl)c2)n[nH]c1NCc1ccco1 [Compound D96] | 20 to 50% |
| NC(=O)c1c(Nc2cccc(Cl)c2)n[nH]c1NCc1cccn1S(=O)(=O)c1ccccc1 [Compound D18] | 20 to 50% |
| Cc1cc(F)ccc1CNc1[nH]nc(Nc2cccc(Cl)c2)c1C#N [Compound C29] | 5 to 20% |
| NC(=O)c1c(Nc2cccc(Cl)c2)n[nH]c1NCc1c[nH]c2c(F)c(F)c(F)c(F)c12 [Compound D22] | ≤ 5% |
| NC(=O)c1c(Nc2cccnc2)n[nH]c1NCc1ccc(O)cc1 [Compound D150] | ≥ 50% |

Please list inhibition at 1 µM recorded for the compound NC(=O)c1c(Nc2ccc(C(F)(F)F)nc2)n[nH]c1NCc1ccc(O)cc1 [Compound D91] ≥ 50%

Please list inhibition at 1 µM recorded for the compound N#Cc1c(Nc2cccc(Cl)c2)n[nH]c1NCc1c[nH]c2c(F)c(F)c(F)c(F)c12 [Compound C8] 5 to 20%

Please list inhibition at 1 µM recorded for the compound NC(=O)c1c(NCc2c(F)cccc2F)n[nH]c1NCc1ccc(O)cc1 [Compound D114] ≤ 5%

----------
# study-system: kinase domain protein of RC kinase (Homo sapiens)
# protocol: Enzymatic assay for kinase inhibitory activity (Crebtide substrate, LANCE readout), kinase domain protein
# Assay type: biochemical
# condition-details: test compound 1 μM, ATP 1 μM, Crebtide 50 nM
# Protocol: Solutions of a test compound, Crebtide (a substrate), a kinase, and ATP were prepared using 1×MAPK Buffer (50 mM HEPES, 1 mM EGTA, […], 10 mM MgCl2, 2 mM DTT, and 0.01% Tween 20). […] After the incubation, the anti-Crebtide (5 μL) and EDTA (5 μL) were added to each well to reach their final concentrations of […] and 10 mM, respectively. […] The plates were then read at 665 nm and 615 nm using Perkin Elmer Lance machine. […]
inhibition at 1 µM overview

| smiles-text | reported-result |
| --- | --- |
| N#Cc1c(Nc2cccc(Cl)c2)n[nH]c1NCc1ccc(OCc2ccc(F)cc2)cc1 | 20 to 50% |
| NC(=O)c1c(Nc2ccc(N3CCOCC3)c(F)c2)n[nH]c1NCc1ccc(O)cc1 | ≥ 50% |
| NC(=O)c1c(NC2CCCCC2)n[nH]c1NCc1ccc(O)cc1 | 20 to 50% |
| N#Cc1c(Nc2cccc(Cl)c2)n[nH]c1NCc1ccc(-n2cncn2)cc1 | 5 to 20% |
| Cc1ccc(S(=O)(=O)Nc2ccc(Nc3n[nH]c(NCc4ccc(O)cc4)c3C(N)=O)cc2)cc1 | 20 to 50% |

Please list inhibition at 1 µM recorded for the compound NC(=O)c1c(Nc2ccc(N)cc2)n[nH]c1NCc1ccc(O)cc1 ≥ 50%

Please list inhibition at 1 µM recorded for the compound NC(=O)c1c(Nc2ccc(-n3ccnc3)cc2)n[nH]c1NCc1ccc(O)cc1 ≥ 50%

Please list inhibition at 1 µM recorded for the compound COc1ccc(CNc2n[nH]c(NCc3ccc(O)cc3)c2C(N)=O)cn1 20 to 50%

----------
# study-system: kinase domain protein of RC kinase (Homo sapiens, UniProt Q56UN5)
# protocol: Enzymatic assay for kinase inhibitory activity (Crebtide substrate, LANCE readout), kinase domain protein
# Assay type: biochemical
# condition-details: test compound 1 μM, ATP 1 μM, Crebtide 50 nM
inhibition at 1 µM overview

| compound | reported-result |
| --- | --- |
| CC(C)N1CCN(c2ccc(Nc3n[nH]c(NCc4ccc(O)cc4)c3C(N)=O)cc2)CC1 [Compound D82] | ≥ 50% |

Please list inhibition at 1 µM recorded for the compound NC(=O)c1c(Nc2ccc(N3CCC(N4CCCC4)CC3)cc2)n[nH]c1NCc1ccc(O)cc1 [Compound D121] ≥ 50%

Please list inhibition at 1 µM recorded for the compound COc1ccc(CNc2[nH]nc(Nc3cccc(Cl)c3)c2C#N)c(C)c1C [Compound C22] ≤ 5%

Please list inhibition at 1 µM recorded for the compound NC(=O)c1c(Nc2cccc(Cl)c2)n[nH]c1NCc1ccc(Cl)nc1 [Compound D6] 5 to 20%

Please list inhibition at 1 µM recorded for the compound Cc1ccc(Nc2n[nH]c(NCc3ccc(O)cc3)c2C(N)=O)cc1 [Compound D61] ≥ 50%

Please list inhibition at 1 µM recorded for the compound NC(=O)c1c(Nc2cccc(Cl)c2)n[nH]c1NCc1cccs1 [Compound D95] ≤ 5%

Please list inhibition at 1 µM recorded for the compound N#Cc1c(Nc2cccc(Cl)c2)n[nH]c1NCc1nc(-c2ccccc2)[nH]c1Cl [Compound C11] ≤ 5%

Please list inhibition at 1 µM recorded for the compound CCc1cccc(Nc2n[nH]c(NCc3ccc(O)cc3)c2C(N)=O)c1 [Compound D68] ≥ 50%
